Attribution: patent US20260258115A1

Parameter: neut IC50 (ug/ml) subtype A (wright). Scope: all listed entries.
experimental.target: RSV F on RSV subtype A virus (RSV-A2) (Respiratory Syncytial Virus, subtype A, …, UniProt P03420 26-574)
experiment.notes: cell-based or functional assay
observation.type: neut IC50 (ug/ml) subtype A (wright) (µg/mL)

| binder | readout.number |
| --- | --- |
| ADI-41249 (antibody, V domains shown) VH: QVQLVQSGAEVKKPGESLKISCQVSRDTSTTYWIGWVRQMPGKGLEWMGIIFPGDSDTRYSPSFQGQVTISADKSIMTAYLQLTSLKASDTAMYYCATQALRGAFDIWGQGTMVTVSS VL: DIRLTQSPSSLSASVGDRVTITCQASQDISNYLNWYQQKPGKAPKLLIYDASYLETGVPSRFSGSGSGTDFTFTISSLQPEDFATYYCQQYDDLLFTFGPGTKLEIK | 0.006 |
| ADI-41259 (antibody, V domains shown) VH: QVQLVESGGRLVKPGGSLRLSCAASGFTFSDFYMSWIRQAPGKGLEWVSYISSSGDDPNYADSVKGRFTISRDNSKNSLYLQMNSLRAEDTAVYYCARDEVGWNNLDYYFGMDVWGQGTTVTVSS VL: DIVMTQSPLSLPVTLGQPASISCRSSQSLVHSDGNTYLSWFHQRPGQSPRRLIYKVSNRDSGVPNRFSGGGSGTDFTLKISRVEAEDVGFFYCMQGTHWQKTFGQGTKVEIK | 0.015 |
